ASSAY TARGET: T1, human CTGF (Homo sapiens, UniProt P29279, H83D)
T1 construct: purchased Creative Biomart
T1 sequence (P29279 with tags, fused parts or gaps H83D): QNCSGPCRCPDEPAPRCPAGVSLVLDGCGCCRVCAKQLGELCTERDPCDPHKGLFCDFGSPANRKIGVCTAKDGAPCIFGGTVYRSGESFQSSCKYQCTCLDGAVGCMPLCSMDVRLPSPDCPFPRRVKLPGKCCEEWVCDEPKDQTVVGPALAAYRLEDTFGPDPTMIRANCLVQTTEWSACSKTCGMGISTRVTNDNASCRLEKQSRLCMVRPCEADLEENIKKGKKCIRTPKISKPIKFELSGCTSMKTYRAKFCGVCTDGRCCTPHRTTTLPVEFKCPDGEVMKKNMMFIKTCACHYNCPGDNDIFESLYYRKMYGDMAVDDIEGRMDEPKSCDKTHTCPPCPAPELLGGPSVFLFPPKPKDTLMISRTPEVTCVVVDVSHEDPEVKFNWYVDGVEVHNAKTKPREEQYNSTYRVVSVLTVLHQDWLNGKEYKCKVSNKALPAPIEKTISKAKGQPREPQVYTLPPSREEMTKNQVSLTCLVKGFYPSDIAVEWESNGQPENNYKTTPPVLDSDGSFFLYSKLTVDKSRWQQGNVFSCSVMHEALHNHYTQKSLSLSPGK
ASSAY COMMENT: SPR binding kinetics and affinity, human CTGF
APPLIED CONDITIONS: 25° C., 1:1 binding model
PROPERTY MEASURED: human CTGF kon (M⁻¹ s⁻¹)
Report the value in M⁻¹ s⁻¹ with no unit label.

MOLECULE	UNITS OF MEASURE	VALUE MEASURED
SEQ ID NO: 29: parent CTGF-binding hNGAL lipocalin mutein (protein, lipocalin mutein) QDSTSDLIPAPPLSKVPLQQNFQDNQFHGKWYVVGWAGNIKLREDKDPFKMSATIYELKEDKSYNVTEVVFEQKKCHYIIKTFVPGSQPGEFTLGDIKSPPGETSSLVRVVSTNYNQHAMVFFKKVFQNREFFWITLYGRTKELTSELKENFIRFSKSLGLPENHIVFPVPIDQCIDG	M⁻¹ s⁻¹	100000
SEQ ID NO: 33: optimized CTGF-binding hNGAL lipocalin mutein (protein, lipocalin mutein) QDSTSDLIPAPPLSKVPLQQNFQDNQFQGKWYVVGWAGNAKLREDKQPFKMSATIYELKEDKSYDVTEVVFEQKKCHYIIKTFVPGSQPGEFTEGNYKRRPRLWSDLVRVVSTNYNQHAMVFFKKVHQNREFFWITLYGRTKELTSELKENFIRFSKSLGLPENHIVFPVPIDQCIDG	M⁻¹ s⁻¹	172000
SEQ ID NO: 34: optimized CTGF-binding hNGAL lipocalin mutein (protein, lipocalin mutein) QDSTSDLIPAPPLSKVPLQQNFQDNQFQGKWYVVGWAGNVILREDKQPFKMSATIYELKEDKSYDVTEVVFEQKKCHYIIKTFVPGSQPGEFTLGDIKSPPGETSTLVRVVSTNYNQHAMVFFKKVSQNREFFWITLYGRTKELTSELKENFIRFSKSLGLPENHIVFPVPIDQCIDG	M⁻¹ s⁻¹	150000

Give me measured human CTGF kon, please, for this molecule: SEQ ID NO: 22: optimized CTGF-binding hNGAL lipocalin mutein (protein, lipocalin mutein) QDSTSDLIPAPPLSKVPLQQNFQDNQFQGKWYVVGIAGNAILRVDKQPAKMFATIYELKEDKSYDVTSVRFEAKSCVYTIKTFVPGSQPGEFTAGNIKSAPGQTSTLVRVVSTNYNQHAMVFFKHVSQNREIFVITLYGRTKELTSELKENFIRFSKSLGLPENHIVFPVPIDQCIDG
142000

Provide one value: measured human CTGF kon of SEQ ID NO: 16: optimized CTGF-binding hNGAL lipocalin mutein (protein, lipocalin mutein) QDSTSDLIPAPPLSKVPLQQNFQDNQFQGKWYVVGLAGNAILRTDKQPAKMFATIYELKEDKSYDVTSVRFEAKSCVYTIKTFVPGSQPGEFTAGNIKSAPGQTSTLVRVVSTNYNQHAMVFFKHVSQNREFFVITLYGRTKELTSELKENFIRFSKSLGLPENHIVFPVPIDQCIDG
92300

Consider the molecule SEQ ID NO: 10: optimized CTGF-binding hNGAL lipocalin mutein (protein, lipocalin mutein) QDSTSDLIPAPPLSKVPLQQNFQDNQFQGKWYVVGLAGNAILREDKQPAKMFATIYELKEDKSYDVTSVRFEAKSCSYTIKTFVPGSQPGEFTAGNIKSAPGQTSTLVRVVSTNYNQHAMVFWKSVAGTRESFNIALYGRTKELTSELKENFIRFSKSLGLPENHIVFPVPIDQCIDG and give its recorded human CTGF kon.
67700
